assay: H69AR cell proliferation blockers – human, duplicate replicates, primary screen (AID 580); details: H69AR lung tumor cells viability, ATP luminescence, 72 h; at 10 µM; active compounds read low
Mark YES only for viability values smaller than 90%; exact matches and larger values are NO.

COMPOUND	CAT
Cn1c(NC(=O)c2ccccc2NC(=O)C(C)(C)C)nc2ccccc21	YES
COc1ccc(-c2nc(C)c(C(C)=O)n2O)cc1OC	NO
COc1cccc(C2C(C(=O)c3cccs3)=C(O)C(=O)N2CCCn2ccnc2)c1OC (configuration not stated)	NO
COc1ccccc1CNC(=O)CCn1c(=O)[nH]c2ccsc2c1=O	NO
Cc1cc(=O)oc2c1ccc1oc(/C(=N/O)c3ccccc3)c(C)c12	YES
CCN(CCNC(=O)C1CCN(S(=O)(=O)c2cccc3cccnc23)CC1)c1ccccc1	NO
CCCCn1c(SCC(=O)OCC)nc2c1c(=O)[nH]c(=O)n2C	NO
COc1ccc(CN2C(=O)CN=C2Nc2ccc(C)cc2C)cc1	YES

Below: the item to evaluate.
Below 90% on viability? Entry C/C=C/COC(=O)c1[nH]c2c(c1C)C(=O)CC(c1ccco1)C2 (configuration not stated)
YES
